TARGET SYSTEM: Bile acid receptor (Homo sapiens, UniProt Q96RI1)
Sequence (Q96RI1 whole entry): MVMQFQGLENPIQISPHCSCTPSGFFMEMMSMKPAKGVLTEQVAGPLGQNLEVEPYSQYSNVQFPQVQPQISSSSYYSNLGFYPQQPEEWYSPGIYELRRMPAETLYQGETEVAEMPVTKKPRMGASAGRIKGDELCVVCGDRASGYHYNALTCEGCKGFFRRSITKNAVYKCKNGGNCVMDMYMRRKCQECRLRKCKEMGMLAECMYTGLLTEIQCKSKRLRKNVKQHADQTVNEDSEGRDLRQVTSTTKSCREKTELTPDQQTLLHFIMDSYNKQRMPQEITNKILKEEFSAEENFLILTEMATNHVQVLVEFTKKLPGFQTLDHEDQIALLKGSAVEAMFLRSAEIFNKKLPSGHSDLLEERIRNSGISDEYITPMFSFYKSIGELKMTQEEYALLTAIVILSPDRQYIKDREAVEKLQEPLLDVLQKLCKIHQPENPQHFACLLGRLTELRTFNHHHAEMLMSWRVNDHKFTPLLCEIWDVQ
ASSAY PROCEDURE: Agonist activity at FXR (unknown origin)
PROPERTY: pEC50
Give bare numbers, as −log10 of the molar value.

INPUT: Requested read-out: pEC50. Entry: Cc1cc(-c2nc3ccc(C(=O)O)cc3n2C)ccc1OCc1c(-c2c(Cl)cccc2Cl)noc1C(C)C
OUTPUT: 7.87

---

System: SK-OV-3
ASSAY PROCEDURE: Antiproliferative activity against human SK-OV-3 cells
Assay type: functional, cell-based
PROPERTY: IC50 (µM)
Answers are plain numbers, in µM.

INPUT: Requested read-out: IC50. Entry: CC(C)(CCCCCC(O)CCCCCC(C)(C)C(=O)O)C(=O)O
OUTPUT: 53
